assay: rapamycin-like changes in RPL19A-GFP expression – cell-based, S. cerevisiae, multiplex flow cytometry, primary screen (AID 1862);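 note: lower values mimic rapamycin by blocking the RPL19A rise seen in DMSO cells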; conditions: S. cerevisiae RPL19A-GFP strain, flow cytometry fluorescence, 3 h; at 10 µM; hits give low values
Inconclusive results are not listed.
observable: percent of DMSO control GFP (%)
Numbers only, in %.

{"compound": "Cc1ccc(N2C(=O)c3ccccc3C2=O)cc1C", "percent of DMSO control GFP, %": 105}
{"compound": "CCc1cc2c(=O)c(-c3ccc4c(c3)OCCO4)coc2c(CN2CCCCC2C)c1O (stereo not given)", "percent of DMSO control GFP, %": 103}
{"compound": "COc1cc(NS(=O)(=O)c2ccc(N)cc2)nc(OC)n1", "percent of DMSO control GFP, %": 98.8}

Please state percent of DMSO control GFP for every compound in the list that follows.
1. COc1cc(C(=O)OCCn2c(=O)c3c(ncn3CCN(C)C)n(C)c2=O)cc(OC)c1OC
2. COc1ccc2[nH]c(=O)c(CN(C(=O)c3ccco3)C(C)C)cc2c1
3. C=CCn1c(N2CCCCCC2)nc2c1c(=O)n(C)c(=O)n2C

[106, 91.7, 97.6]

Please state percent of DMSO control GFP for every compound in the list that follows.
1. CC(C)(C)n1c(=O)[nH]c2c(c1=O)CCC2
2. CNCCC(Oc1ccc(C(F)(F)F)cc1)c1ccccc1 (stereo not given)
3. COc1ccc(/C=C2\CC/C(=C\c3ccc(OC)c(OC)c3)C2=O)cc1OC
4. COc1ccc(O)c(C2=Nc3ccccc3N=C(c3ccccc3)C2)c1
5. O=C(O)CCCCCN1C(=O)C(=O)/C(=C(/O)c2ccccc2)C1c1ccccc1 (stereo not given)
6. COc1ccc(Cc2noc(CN(C)CCN3CCc4ccccc4C3)n2)cc1OC
7. CCOC(=O)C(Cc1cc(C(C)=O)ccc1OC(C)C)C(=O)OCC

1: 105; 2: 89.8; 3: 99.8; 4: 94.6; 5: 99.5; 6: 103; 7: 93

Please state percent of DMSO control GFP for every compound in the list that follows.
1. CC(=O)OC[C@H]1O[C@@H](Sc2cccc3cccnc23)[C@H](OC(C)=O)[C@@H](OC(C)=O)[C@H]1OC(C)=O
2. COCC(C)NC(=O)c1ccc(CN2CCc3ccccc3C2)cc1 (stereo not given)
3. CC(C)(C)C(=O)N1CCCC1C(=O)O (stereo not given)
4. CC1(CC(=O)Nc2ccccc2)NC(=S)N(c2ccccc2)N1 (stereo not given)
5. CC(OC(=O)c1cc(=O)[nH]c2ccccc12)C(=O)c1ccccc1 (stereo not given)
6. CS(=O)c1ccccc1O (stereo not given)
7. Cc1ccc(O)c(CCc2ccccc2)n1
8. OC(C#CCN1CCCC1)(c1ccccc1)c1cccnc1 (stereo not given)

[98.9, 97.3, 104, 106, 99.6, 103, 100, 98.9]

Please state percent of DMSO control GFP for every compound in the list that follows.
1. COC(=O)c1ccc(OCCCCN2CC(C)OC(C)C2)cc1 (stereo not given)
2. COc1ccc(CCN2CNc3c(c(=O)n(C)c(=O)n3C)C2)cc1OC
3. C(=C\c1ccc2ccccc2n1)/c1ccccc1
4. Cc1ccsc1C1NC(=O)c2ccccc2N1 (stereo not given)

1. 104
2. 99.8
3. 102
4. 103
